# credit: ChEMBL document CHEMBL3797060

assay-method-text: Volume of distribution at steady state in rat at 0.1 mg/kg, iv administered via cassette dosing by LC/MS/MS analysis
Assay type: ADME, organism-based
conditions-used: in vivo, read-out: Vdss
endpoint-name: Vd (L/kg)

State the recorded Vd for this entry: N=c1c(C(N)=O)cc(Cl)cn1Cc1cc(Cl)cc(C(N)=O)c1
3.21

Same question, C[C@H](c1cccc(C#N)c1)n1cc(Cl)cc(C(N)=O)c1=N [(R)-9s] this time
4.68

Queued: CS(=O)(=O)c1ccc(Cl)cc1Cn1cc(Cl)cc(C(N)=O)c1=N
4.43

* * *

assay-method-text: Cmax in rat at 1 mg/kg, po administered via cassette dosing by LC/MS/MS analysis
Format: ADME, organism-based
Parameters: dose 1 mg/kg, route oral
conditions-used: in vivo
endpoint-name: Cmax (ng/mL)

[1] N=c1c(C(N)=O)cc(Cl)cn1Cc1cc(Cl)cc(C(N)=O)c1
[2] CS(=O)(=O)c1ccc(Cl)cc1Cn1cc(Cl)cc(C(N)=O)c1=N
[3] C[C@H](c1cccc(C#N)c1)n1cc(Cl)cc(C(N)=O)c1=N [(R)-9s]
Quick one: which order do the items above go in by Cmax, smallest to largest? The labels, placed in the requested order, form the answer.
1, 2, 3
(1: 3.2 ng/mL, 2: 60.2 ng/mL, 3: 142 ng/mL)
